- Test system: Blumeria graminis f. sp. tritici
- Experimental details: Test F: preventive spray on wheat seedlings, visual disease rating (wheat powdery mildew)
- Type: in vivo
- Setup conditions: asterisk: 40 ppm test suspension
Marks after values point to notes of the source that are not given here.
Some compounds, each annotated with its measured Test F rating (% disease control).

See these solved cases before continuing.
Compound	Endpoint value
COc1cc(F)c(C(O)c2c(C)nn(C)c2-c2ccc(F)cc2Cl)c(F)c1 (stereo not drawn) [compound 20]	92* %
COc1nn(C)c(-c2c(F)cccc2F)c1C(O)c1c(F)ccc(F)c1Cl (stereo not drawn) [compound 139]	96* %
Cn1nc(OC(F)F)c(C(O)c2ccc(F)cc2Cl)c1-c1c(F)cccc1F (stereo not drawn) [compound 128]	56* %
Cc1nn(C)c(-c2ccc(F)cc2F)c1Nc1ccc(F)cc1Cl [compound 57]	97* %
Cc1nn(C)c(-c2c(F)cccc2F)c1C(SC#N)c1ccc(F)cc1F (stereo not drawn) [Compound 115]	99* %
COc1nn(C)c(-c2c(F)cc(F)cc2F)c1C(O)c1ccc(F)cc1Cl (stereo not drawn) [compound 152]	100* %

q: Suppose we examine the compound Cc1cc(F)ccc1C(O)c1c(C)nn(C)c1-n1ccnc1C (stereo not drawn) [compound 147] ; what Test F rating (% disease control) value has been reported?
a: 0* %

q: What value of Test F rating (% disease control) has been recorded for this entry: COc1ccc(C(O)c2c(OC)nn(C)c2-c2c(F)cccc2Cl)c(F)c1 (stereo not drawn) [compound 143]
a: 98* %

----------
Property: Test E2 rating (% disease control); scope: individual molecules
- Tested on: Puccinia recondite f. sp. tritici
- Experimental details: Test E2: preventive spray on wheat seedlings, visual disease rating (wheat leaf rust)
- Format: in vivo
- Setup conditions: no asterisk: standard test suspension, not 40 ppm
- Text: General protocol for preparing test suspensions for Tests A-F: the test compounds were first dissolved in acetone in an amount equal to 3% of the final volume and then suspended at the desired concentration (in ppm) in acetone and purified water (50/50 mix by volume) containing 250 ppm of the surfactant Trem® 014 (polyhydric alcohol esters). […]
Give the quantity in %, number only.

Example results:
Molecule	Test E2 rating (% disease control) (%)
Cc1nn(C)c(-c2c(Cl)cccc2Cl)c1C(O)c1ccc(F)cc1F (stereo not drawn) [compound 74]	99
Cc1nn(C)c(-c2c(F)cccc2Cl)c1C(O)c1c(Cl)cccc1Cl (stereo not drawn) [compound 85]	100
Cc1nn(C)c(-c2c(Cl)cccc2Cl)c1C(O)c1c(F)cc(F)cc1F (stereo not drawn) [compound 70]	100
Cn1nc(Cl)c(C(O)c2ccc(F)cc2F)c1-c1c(F)cccc1Cl (stereo not drawn) [compound 133]	100

Moving on to another molecule below.
q: Query the reported Test E2 rating (% disease control) for Puccinia recondite f. sp. tritici; item: Cc1nn(C)c(-c2c(F)cc(F)cc2F)c1C(O)c1ccc(F)cc1Cl (stereo not drawn) [compound 61]
a: 100

----------
- System: Blumeria graminis f. sp. tritici
- Experimental details: Test F: preventive spray on wheat seedlings, visual disease rating (wheat powdery mildew)
- Format: in vivo
- Setup conditions: no asterisk: standard test suspension, not 40 ppm
Test F rating (% disease control) by entry:
Response body: numeric value in %, unit text excluded.

The cases that follow already have their Test F rating (% disease control) on record.
Molecule	Target of assay	Endpoint value
Cc1nn(C)c(-n2ccnc2C)c1C(O)c1ccc(F)cc1F (stereo not drawn) [compound 146]	Blumeria graminis f. sp. tritici	0
Cc1nn(C)c(-c2c(F)cccc2F)c1C(O)c1ccc(C#N)cc1F (stereo not drawn) [compound 22]	Blumeria graminis f. sp. tritici	0
Cc1cc(C)n(-c2c(C(O)c3ccc(F)cc3F)c(C)nn2C)n1 (stereo not drawn) [compound 159]	Blumeria graminis f. sp. tritici	0
Cc1nn(C)c(-c2c(F)cc(F)cc2F)c1C(O)c1ccc(F)cc1Cl (stereo not drawn) [compound 61]	Blumeria graminis f. sp. tritici	100
Cc1nn(C)c(-c2c(F)cccc2F)c1C(O)c1c(F)cc(F)cc1F (stereo not drawn) [compound 15]	Blumeria graminis f. sp. tritici	100
Cc1nn(C)c(-c2ccccc2Br)c1C(O)c1ccc(F)cc1Cl (single isomer, unassigned) [compound 79]	Blumeria graminis f. sp. tritici	99
Cc1nn(C)c(-c2ccc(F)cc2Cl)c1C(O)c1ccc(C#N)cc1F (stereo not drawn) [compound 25]	Blumeria graminis f. sp. tritici	96
COc1cc(F)c(C(O)c2c(C)nn(C)c2-c2c(F)cccc2F)c(F)c1 (stereo not drawn) [compound 16]	Blumeria graminis f. sp. tritici	93

Now for the molecule whose Test F rating (% disease control) we want.
q: Write down the reported Test F rating (% disease control) of Cn1nc(Br)c(C(O)c2ccc(F)cc2Cl)c1-c1ccc(F)cc1Cl (stereo not drawn) [compound 125] , test system: Blumeria graminis f. sp. tritici.
a: 87
